Entries and their MIC values follow.
System: E. fecium
parameter: MIC

# cpd smiles, reading
records = [
    ("CCc1cc(Nc2cc(=O)n(CCCCN3CCN(c4ncc(C(=O)OC)c(C(F)(F)F)n4)CC3)c(=O)[nH]2)ccc1C", "80 µg/mL"),
    ("CCc1cc(Nc2cc(=O)n(CCCCN3CCN(c4ncccn4)CC3)c(=O)[nH]2)ccc1C", "5 µg/mL"),
    ("CCc1cc(Nc2cc(=O)n(CCCC#N)c(=O)[nH]2)ccc1C", "5 µg/mL"),
    ("CCc1cc(Nc2cc(=O)n(CCCCN3CCN(c4nc(C)cc(C(=O)OC)n4)CC3)c(=O)[nH]2)ccc1C", "20 µg/mL"),
]
